measured.on: Protein kinase C delta type (Homo sapiens)
Sequence (Q05655 whole entry, the tested form may be a part): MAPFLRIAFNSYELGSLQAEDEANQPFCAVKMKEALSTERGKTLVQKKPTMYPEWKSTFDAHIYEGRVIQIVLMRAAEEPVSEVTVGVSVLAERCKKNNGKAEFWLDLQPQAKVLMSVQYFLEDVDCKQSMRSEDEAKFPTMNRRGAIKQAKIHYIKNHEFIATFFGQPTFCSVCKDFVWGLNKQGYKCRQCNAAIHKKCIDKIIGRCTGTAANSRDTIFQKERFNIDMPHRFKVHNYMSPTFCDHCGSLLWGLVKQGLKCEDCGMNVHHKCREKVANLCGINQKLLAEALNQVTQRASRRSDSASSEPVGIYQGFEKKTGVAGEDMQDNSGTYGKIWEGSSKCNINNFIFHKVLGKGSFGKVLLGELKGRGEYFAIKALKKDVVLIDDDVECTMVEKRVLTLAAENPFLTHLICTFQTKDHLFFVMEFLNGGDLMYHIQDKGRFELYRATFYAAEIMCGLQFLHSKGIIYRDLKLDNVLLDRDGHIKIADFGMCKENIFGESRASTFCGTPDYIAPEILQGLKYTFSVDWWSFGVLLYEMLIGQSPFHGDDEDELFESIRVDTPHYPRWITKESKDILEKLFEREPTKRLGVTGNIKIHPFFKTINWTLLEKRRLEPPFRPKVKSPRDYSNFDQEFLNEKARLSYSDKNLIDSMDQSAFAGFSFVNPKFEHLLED
method.notes: Inhibition of [3H]-PDBu binding to PKCdelta C1B domain (unknown origin) by competitive binding assay
Kindly state Ki for each of the entries shown.
Numbers only, in nM.

Please review the following examples before continuing.
Ask: State the recorded Ki for this entry: `C=C[C@@](C)(CCC=C(C)C)c1ccc2c3c(c[nH]c13)C[C@@H](CO)NC(=O)[C@H](C(C)C)N2C`
Reply: 0.11

Ask: Please give the result for `C=C[C@@](C)(CCC=C(C)C)c1ccc2c3c1NC(=O)[C@@]3(O)C[C@@H](CO)NC(=O)[C@@H](C(C)C)N2` too.
Reply: 940

Ask: Please give the result for `C=C[C@@](C)(CCC=C(C)C)c1ccc2c3c(c[nH]c13)C[C@@H](CO)NC(=O)[C@@H](C(C)C)N2C` too.
Reply: 17

// moving on: another record for Ki
Ask: State the recorded Ki for this entry: `C=C[C@@](C)(CCC=C(C)C)c1ccc2c3c1NC(=O)[C@@]3(O)C[C@@H](CO)NC(=O)[C@@H](C(C)C)N2C`
Reply: 1400

###

method.notes: Toxicity in goldfish assessed as survival rate at 5 ppm measured after 90 mins relative to control
condition.parameters: carassius auratus
quantity: survival at 1.5 h, 5 ppm
# do not omit the unit; it follows the number

Ask: State the recorded survival at 1.5 h, 5 ppm for this entry: C#CCCC/C(=C/Cl)CCC(C)/C=C/CCC(=O)NCC/C(=C\C(=O)N1C(=O)C=C[C@@H]1C)OC (stereo partly specified)
Reply: 0%

###

System: Mycobacterium tuberculosis
method.notes: Antimycobacterial activity against Mycobacterium tuberculosis H37Rv assessed as inhibition of bacterial growth at 12.5 ug/ml relative to control
Format: functional
quantity: inhibition at 12.5 µg/mL (%)
Give bare numbers, in %.

Please review the following examples before continuing.
Ask: State the recorded inhibition at 12.5 µg/mL for this entry: CCCCCCC[C@@H](C/C=C/CCC(=O)N(C)C/C(=C/Cl)C/C(=C\C(=O)N1CC(O)CC1=O)OC)OC (some centres undefined)
Reply: 10

Ask: Please give the result for `CCCCCCC[C@@H](C/C=C/CCC(=O)N(C)C/C(=C/Cl)C/C(=C\C(=O)N1CC(OC)=CC1=O)OC)OC` too.
Reply: 10

Ask: Please give the result for `CCCCCCC[C@@H](C/C=C/CCC(=O)O)OC` too.
Reply: 65

// moving on: another record for inhibition at 12.5 µg/mL
Ask: State the recorded inhibition at 12.5 µg/mL for this entry: `CCCCCCC[C@@H](C/C=C/CCC(=O)N(C)C/C(=C\Cl)C/C(=C\C(=O)N1CC=CC1=O)OC)OC`
Reply: 10

###

Test system: N2a
method.notes: Cytotoxicity against mouse Neuro2a cells assessed as inhibition of cell growth
Assay type: functional, cell-based
condition.parameters: Mus musculus, N2a
quantity: IC50 (µM)
Numbers only, in µM.

Please review the following examples before continuing.
Ask: State the recorded IC50 for this entry: CO/C(=C/C(=O)N1C(=O)C=C[C@@H]1C)CCNC(=O)CC/C=C/C(C)CC/C(=C\Cl)CCCC#CBr (stereo partly specified)
Reply: 15

Ask: Please give the result for CCC1CC(C)CC(=O)N(C)/C=C/CCC(C)C(=O)N[C@@H](C(C)C)C(=O)N(C)[C@@H](Cc2ccccc2)C(=O)N(C)[C@@H]([C@@H](C)O)C(=O)N(C)[C@@H](Cc2ccccc2)C(=O)O1 (stereo partly specified) too.
Reply: 6

Ask: Please give the result for C#CCCC/C(=C/Cl)CCC(C)/C=C/CCC(=O)NCC/C(=C\C(=O)N1C(=O)C=C[C@@H]1C)OC (stereo partly specified) too.
Reply: 15

Ask: Please give the result for C=CCCC/C(=C/Cl)CCC(C)/C=C/CCC(=O)NCC/C(=C\C(=O)N1C(=O)C=C[C@@H]1C)OC (stereo partly specified) too.
Reply: 15

Ask: Please give the result for `CCCCCCCC[C@@H](C/C=C/CCC(=O)NC/C(=C/Cl)[C@]12O[C@H]1[C@H](OC(C)=O)CCC2=O)OC` too.
Reply: 4

Ask: Please give the result for `C=C(CCNC(=O)CC/C=C/C[C@H](CCCCCCCC)OC)[C@@]12O[C@H]1[C@H](O[C@H]1OC[C@H](OC)[C@@H](O)[C@@H]1OC)C=C(C)C2=O` too.
Reply: 4

Parameters: items (list). Returns: IC50 for each item.
1. CC[C@@H](C)[C@H]1C(=O)N2CCC[C@H]2C(=O)O[C@H](C(C)(C)C)C[C@@H](C)C[C@H](O)[C@H](C)C2=N[C@@H](/C=C(\C)C(=O)N[C@@H](Cc3ccc(OC)cc3)C(=O)N(C)[C@@H](C)C(=O)N1C)CS2
2. CCCCCCCC[C@@H](C/C=C/CCC(=O)NC/C(=C/Cl)[C@]12O[C@H]1[C@H](O)CCC2=O)OC
3. CCCCCCCC[C@@H](C/C=C/CCC(=O)NC/C(=C/Cl)C1=CCC[C@@H](OC(C)=O)C1=O)OC
4. CCCCCCCC[C@@H](C/C=C/CCC(=O)NC/C(=C/Cl)C1=CCCCC1=O)OC

Reply:
[1, 4, 4, 0.49]
